assay.system: UniProtKB P43116
assay.name: hEP2 b-arrestin assay (PathHunter HEK 293 PTGER2 b-arrestin cells)
Format: cell-based
experimental.context: hEP2 b-arrestin assay (values without asterisk)
measured.metric: IC50 (nM)

{"columns": ["molecule", "value"],
 "data": [
  ["CCOc1cc(-c2cc(NCCn3c(C)cc4c(OC)ccc(F)c43)ncn2)sc1NC(=O)CC [Example 1073]", 7],
  ["COc1cc(-c2cc(NCCn3c(C#N)cc4c(OC)ccc(F)c43)ncn2)ccn1 [Example 898]", 41],
  ["CNc1cc(-c2cc(NCCn3c(C)cc4c(OC)cc(F)cc43)ncn2)ccc1C(=O)O [Example 1017]", 7],
  ["CCOc1cc(-c2cc(NCCn3c(C#N)cc4c(OC)ccc(F)c43)ncn2)sc1C(=O)NC(C)C [Example 1027]", 39],
  ["COc1ccc(F)c2c1cc(C#N)n2CCNc1cc(-c2ccc(-c3nc[nH]c3C)cc2)ncn1 [Example 819]", 7],
  ["CCOc1cc(-c2cc(NCCn3c(C)cc4c(OC)ccc(F)c43)ncn2)sc1NC(N)=O [Example 1075]", 7],
  ["COc1ccc(F)c2c1cc(C#N)n2CCNc1cc(-c2cc(OC(C)C)c(C(=O)O)s2)ncn1 [Example 802]", 7]
]}

###

Listed here are molecules together with their documented pIC50.
assay.system: PTGER2 (EP2) (Homo sapiens (Human))
assay.name: hEP2 b-arrestin assay (PathHunter HEK 293 PTGER2 b-arrestin cells)
Type: cell-based
experimental.context: antagonistic activity on hEP2; mean where measured multiple times
Procedure: The assay is using the PathHunter™ HEK 293 PTGER2 and PTGER4 b-arrestin cell lines from DiscoverX. The system is based on the Enzyme Fragment Complementation Technology. […] Twelve μl of reagent are transferred to the assay plate and incubate for 1 hour at room temperature in the dark. Luminescence counts are read on a BMG Fluostar Optima reader according to manufacturer's instructions. […] (each concentration is measured in duplicate)
pIC50: −log10 of the molar value.

{"columns": ["structure", "pIC50"],
 "data": [
  ["Cc1nc2cc(-c3cc(NCCn4c(C)cc5c(C)ccc(F)c54)ncn3)ccc2[nH]1", 6.90],
  ["Cc1cc(-c2cc(NCCn3c(C)cc4c(C)ccc(F)c43)ncn2)sc1C(=O)O", 7.85],
  ["Cc1ccc(F)c2c1cc(C)n2CCNc1cc(-c2ccc(CO)c(Cl)c2)ncn1", 7.03]
]}

###

assay.system: EP2 (Homo sapiens (Human));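 note: antagonism of PGE2-stimulated cAMP accumulation in SF295 human glioblastoma cells with endogenous EP2, cAMP read by HTRF, expressed relative to DMSO control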
Sequence (P43116 whole entry): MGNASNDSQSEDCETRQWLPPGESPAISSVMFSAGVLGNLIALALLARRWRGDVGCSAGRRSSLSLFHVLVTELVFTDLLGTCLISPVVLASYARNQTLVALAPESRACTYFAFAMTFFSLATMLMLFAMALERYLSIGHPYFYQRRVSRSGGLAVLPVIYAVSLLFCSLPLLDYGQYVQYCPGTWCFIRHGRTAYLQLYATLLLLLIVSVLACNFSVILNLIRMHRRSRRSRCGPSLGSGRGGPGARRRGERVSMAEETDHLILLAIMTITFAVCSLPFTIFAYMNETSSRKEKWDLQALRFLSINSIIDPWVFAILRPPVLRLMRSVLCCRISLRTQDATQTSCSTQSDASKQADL

{"columns": ["compound", "IC50"],
 "data": [
  ["Cc1c(F)cc(F)c2c1cc(C)n2CCNc1cc(-c2ccc(C(=O)O)c(OC(F)F)c2)ncn1 [compound 510]", "20 nM"],
  ["CCOc1cc(-c2cc(NCCn3c(C)cc4c(C)ccc(F)c43)ncn2)cc(Cl)c1C(=O)O [compound 433]", "61 nM"],
  ["COc1ccc(F)c2c1cc(C)n2CCNc1cc(-c2ccc(-c3csc(CC(N)=O)n3)cc2)ncn1 [Example 786]", "16 nM"],
  ["COc1c(F)cc(Cl)c2c1cc(C)n2CCNc1cc(-c2ccc3c(=O)[nH][nH]c3c2)ncn1 [Example 782]", "39 nM"],
  ["CCCCOc1cc(-c2cc(NCCn3c(C)cc4c(OC)cccc43)ncn2)ccc1C(=O)O [compound 484]", "1 nM"],
  ["COc1ccc(F)c2cc(C)n(CCNc3cc(-c4ccc(C(=O)O)c(CC(C)C)c4)ncn3)c12 [compound 539]", "160 nM"],
  ["COc1cccc2c1cc(C)n2CCNc1cc(-c2ccc(C(=O)O)c(CC(C)C)c2)ncn1 [compound 428]", "11 nM"],
  ["Cc1cc2ccccc2n1CCNc1cc(-c2ccc3c(=O)[nH]oc3c2)ncn1 [Example 774]", "4 nM"],
  ["CCCc1cc(-c2cc(NCCn3c(C)cc4c(OC)ccc(Cl)c43)ncn2)cc(F)c1C(=O)O [compound 512]", "21 nM"],
  ["COc1cc(F)cc2c1cc(C)n2CCNc1cc(-c2ccc(-c3oncc3C)cc2)ncn1 [compound 736]", "39 nM"],
  ["CCNC(=O)Nc1ccc(-c2cc(NCCn3c(C)cc4c(OC)ccc(F)c43)ncn2)cc1OC [compound 555]", "23 nM"],
  ["COc1cc(F)cc2c1cc(C)n2CCNc1cc(-c2ccc(-c3cncn3C)cc2)ncn1 [compound 582]", "50 nM"],
  ["Cc1cc(F)cc2c1cc(C)n2CCNc1cc(-c2ccc(-c3nnc(N)s3)cc2)ncn1 [compound 569]", "17 nM"],
  ["CCCOc1cc(-c2cc(NCCn3c(C)cc4c(OC)cccc43)ncn2)ccc1C(=O)O [compound 400]", "6 nM"],
  ["COc1cc(F)cc2c1cc(C)n2CCNc1cc(-c2ccc(-c3cc(N(C)C)ncn3)cc2)ncn1 [Example 763]", "25 nM"]
]}

Values were extracted from patent US12011444B2.
